pIC50: recorded values
tested on: GST-TIE2 (intracellular domains of human TIE2) (Homo sapiens, UniProt Q02763)
Construct: made in house
Sequence (Q02763 762-1104): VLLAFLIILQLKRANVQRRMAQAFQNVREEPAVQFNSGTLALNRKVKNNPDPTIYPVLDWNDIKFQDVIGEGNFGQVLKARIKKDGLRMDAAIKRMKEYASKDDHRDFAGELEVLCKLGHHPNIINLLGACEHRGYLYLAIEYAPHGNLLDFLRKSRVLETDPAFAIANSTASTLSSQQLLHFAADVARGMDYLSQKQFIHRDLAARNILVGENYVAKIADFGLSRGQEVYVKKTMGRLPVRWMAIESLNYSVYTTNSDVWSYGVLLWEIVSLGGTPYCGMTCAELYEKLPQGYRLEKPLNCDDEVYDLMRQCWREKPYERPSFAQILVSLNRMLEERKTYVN
assay: TIE-2 Enzyme Assay (TIE2-E), LANCE method
Type: biochemical
cond: preactivated GST-TIE2, 1 μM D1-15 peptide, 80 uM ATP, 30 mins at room temperature; pIC50 = -log IC50 in Molar
pIC50: −log10 of the molar value.

[
  {
    "structure as smiles": "NCCCNC(=O)c1ccc(/C=N/Nc2ncnc3c2cnn3-c2ccccc2)cc1",
    "pIC50": "6.00 to 7.00"
  },
  {
    "structure as smiles": "CS(=O)(=O)CCNC(=O)c1ccc(/C=N/Nc2ncnc3c2cnn3-c2ccccc2)cc1",
    "pIC50": "6.00 to 7.00"
  },
  {
    "structure as smiles": "CN(CCc1ccccn1)C(=O)c1ccc(/C=N/Nc2ncnc3c2cnn3-c2ccccc2)cc1",
    "pIC50": "6.00 to 7.00"
  }
]
